The reported numbers originate from patent US11912703B2.

# EXPERIMENTAL SYSTEM: UniProt:Q9NYK1
# PROTOCOL NOTES: TLR7 inhibition reporter assay (HEK-Blue SEAP)
# CONDITION SUMMARY: HEK-Blue cells overexpressing human TLR7, gardiquimod 7.5 μM stimulation
Give IC50 for every item shown.

These solved cases illustrate the format of a correct answer.
> print(dat)
                                   compound  readout.name  measured.value
1  COc1cc(-c2[nH]c3cnc(C4CCNCC4)c(C)c3c2C(C)C)cn2ncnc12          IC50          4.7 nM
2  Cc1cc(-c2[nH]c3cnc(C4CCN(C5COC5)CC4)cc3c2C(C)C)cn2ncnc12          IC50          3.2 nM
3  CCN(C)C1CCC(c2ncc3[nH]c(-c4cn5ncnc5c(C)c4C)c(C(C)C)c3c2C)CC1 (stereo not drawn)          IC50           33 nM
4  COc1cc(-c2[nH]c3cnc(N4CCC(NC5CCOCC5)CC4)c(C)c3c2C(C)C)cn2ncnc12          IC50         0.49 nM
5  Cc1c(-c2[nH]c3cnc(C4CCN(C(C)C)CC4)cc3c2C(C)C)cn2ncnc2c1C          IC50          1.7 nM

Each of the following entries comes with a recorded value; kindly state IC50 for each.
1. Cc1c(-c2[nH]c3cnc(C4CCC(NC5CCOCC5)CC4)c(C)c3c2C(C)C)cn2ncnc2c1C (stereo not drawn) [Example 119]
2. Cc1cc(-c2[nH]c3cnc(N4CCC(NC5(C)COC5)CC4)c(F)c3c2C(C)C)cn2ncnc12
3. Cc1c(-c2[nH]c3cnc(N4CCN(S(C)(=O)=O)CC4)c(F)c3c2C(C)C)cn2ncnc2c1C

OUT:
1: 8.1 nM; 2: 1 nM; 3: 13 nM

====

# EXPERIMENTAL SYSTEM: human TLR7 (Homo sapiens (Human), UniProt Q9NYK1)
# Sequence (Q9NYK1 27-1049): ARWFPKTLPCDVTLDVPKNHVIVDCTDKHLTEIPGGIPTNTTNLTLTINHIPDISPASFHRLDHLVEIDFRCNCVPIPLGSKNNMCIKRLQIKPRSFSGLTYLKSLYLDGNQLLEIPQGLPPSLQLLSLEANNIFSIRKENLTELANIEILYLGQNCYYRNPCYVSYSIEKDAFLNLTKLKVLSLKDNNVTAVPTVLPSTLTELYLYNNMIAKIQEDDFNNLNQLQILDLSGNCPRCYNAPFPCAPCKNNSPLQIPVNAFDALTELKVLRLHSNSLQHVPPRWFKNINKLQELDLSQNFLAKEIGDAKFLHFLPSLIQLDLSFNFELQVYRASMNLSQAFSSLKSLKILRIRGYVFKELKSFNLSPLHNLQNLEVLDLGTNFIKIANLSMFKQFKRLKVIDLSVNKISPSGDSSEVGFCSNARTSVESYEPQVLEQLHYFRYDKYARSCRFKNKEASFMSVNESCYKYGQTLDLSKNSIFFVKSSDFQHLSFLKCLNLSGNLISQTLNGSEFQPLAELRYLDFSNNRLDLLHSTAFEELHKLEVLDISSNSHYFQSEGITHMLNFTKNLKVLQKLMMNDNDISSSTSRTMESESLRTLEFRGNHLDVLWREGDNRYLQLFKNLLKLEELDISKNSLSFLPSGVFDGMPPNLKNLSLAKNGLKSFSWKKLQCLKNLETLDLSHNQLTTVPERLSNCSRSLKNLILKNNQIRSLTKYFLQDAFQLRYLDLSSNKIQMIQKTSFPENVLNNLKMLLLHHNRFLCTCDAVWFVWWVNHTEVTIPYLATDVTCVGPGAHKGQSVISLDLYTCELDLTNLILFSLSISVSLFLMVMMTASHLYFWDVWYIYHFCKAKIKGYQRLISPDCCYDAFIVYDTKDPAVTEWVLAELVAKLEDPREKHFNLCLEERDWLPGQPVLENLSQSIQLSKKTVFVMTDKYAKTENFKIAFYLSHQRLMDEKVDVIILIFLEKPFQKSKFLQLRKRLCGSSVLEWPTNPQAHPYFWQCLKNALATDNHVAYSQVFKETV
# PROTOCOL NOTES: TLR7 inhibition reporter assay (HEK-Blue SEAP)
# CONDITION SUMMARY: HEK-Blue cells overexpressing human TLR7, gardiquimod 7.5 μM stimulation
READOUT NAME: IC50 (nM)
Answers are plain numbers, in nM.

> print(dat)
                                   molecule  measured.value
1  Cc1c(-c2[nH]c3cnc(N4CCN(CC(C)C)C[C@H]4C)c(F)c3c2C(C)C)cn2ncnc2c1C [Example 460]              10
2  Cc1cc(-c2[nH]c3cnc(C4CCN(CC5(C)COC5)CC4)c(F)c3c2C(C)C)cc(C)n1 [Example 215]             4.2
3  Cc1c(-c2[nH]c3cnc(N4CCN(CC(C)(C)C)CC4)c(F)c3c2C(C)C)cn2ncnc2c1C [Example 432]             102
4  Cc1cc(-c2[nH]c3cnc(C4CCNCC4)c(F)c3c2C(C)C)cn2ncnc12 [Example 184]             1.9
5  COc1cc(-c2[nH]c3cnc(N4CCN(C)C[C@H]4C)c(F)c3c2C(C)C)cn2ncnc12 [Example 436]             1.8
6  Cc1c(-c2[nH]c3cnc(N4CC5(C4)CN(C4CCOCC4)C5)c(F)c3c2C(C)C)cn2ncnc2c1C [Example 401]              27
7  Cc1c(-c2[nH]c3cnc(N4CCN(C(C)C)C[C@H]4C)c(F)c3c2C(C)C)cn2ncnc2c1C [Example 461]             5.4
8  Cc1c(-c2[nH]c3cnc(C4CCC(NCC(C)(C)C)CC4)c(C)c3c2C(C)C)cn2ncnc2c1C (stereo not shown) [Example 247]              16

Each of the following entries comes with a recorded value; kindly state IC50 for each.
1. COc1cc(-c2[nH]c3cnc(N4CCN(C(C)C)C[C@H]4C)c(F)c3c2C(C)C)cn2ncnc12 [Example 443]
2. Cc1c(-c2[nH]c3cnc(C4CCC(NC5COC5)CC4)c(F)c3c2C(C)C)cn2ncnc2c1C (stereo not shown) [Example 174]

OUT:
1. 4
2. 0.78
